Biological target: human P2X3 receptor (Homo sapiens)
Sequence (P56373 1-397): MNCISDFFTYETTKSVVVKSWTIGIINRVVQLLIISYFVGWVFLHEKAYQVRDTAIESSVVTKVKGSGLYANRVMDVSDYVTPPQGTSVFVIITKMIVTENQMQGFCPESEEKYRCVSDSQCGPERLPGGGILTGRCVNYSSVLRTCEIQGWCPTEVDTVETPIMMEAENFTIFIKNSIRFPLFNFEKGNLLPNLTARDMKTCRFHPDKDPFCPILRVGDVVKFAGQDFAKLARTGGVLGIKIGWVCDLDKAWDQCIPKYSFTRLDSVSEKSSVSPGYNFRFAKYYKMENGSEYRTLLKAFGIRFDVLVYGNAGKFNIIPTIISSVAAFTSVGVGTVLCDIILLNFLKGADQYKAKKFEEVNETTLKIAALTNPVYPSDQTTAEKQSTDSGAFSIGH
Experiment: Intracellular calcium measurement, antagonist activity at human P2X3 receptors (hP2X3 1321N1), Fluo8
Type: cell-based
Design: expressed in transfected cells; host or cells: human astrocytoma 1321N1 (1312N1 [sic])
Settings: column 3); 1321N1 cells, human P2X3, Fluo8, agonist ATP at EC50
Metric Name: IC50 (nM)

Completed entries (count: 2):
CC(C)N1Cc2c(n(CC(=O)Nc3ccc(F)cn3)c3cc(C4CCN(S(C)(=O)=O)C4)nn3c2=O)C1=O (racemic)	57
CC(C)(C)c1cc2n(CC(=O)Nc3ccc(F)cn3)c3c(c(=O)n2n1)CN(C1COC1)C3=O	205

[1] CC(C)(C)c1cc2n(CC(=O)Nc3ccc(F)cn3)c3c(c(=O)n2n1)CN(C1CCC1)C3=O
[2] CCc1cc2n(CC(=O)Nc3ccc(F)cn3)c3c(c(=O)n2n1)CN(Cc1ccc(F)cc1)C3=O
[3] CC(C)N1Cc2c(n(CC(=O)Nc3ccccn3)c3cc(C(C)(C)C)nn3c2=O)C1=O
[4] O=C(Cn1c2c(c(=O)n3nc(C4CC4)cc13)CN(CCN1CCOCC1)C2=O)Nc1ccc(F)cn1
[5] COC[C@H](C)N1Cc2c(n(CC(=O)Nc3ccc(F)cn3)c3cc(-c4ccc(C)nc4)nn3c2=O)C1=O
Task: Order field: IC50 | Direction: descending (largest first) Present the labels in the sequence the task asks for.
Result: 3, 4, 1, 2, 5

The measurements presented in this section are drawn from patent US11319324B2.
